assayed.system: C-C chemokine receptor type 6 (Homo sapiens) (UniProt P51684)
Sequence (P51684 whole entry, looked up): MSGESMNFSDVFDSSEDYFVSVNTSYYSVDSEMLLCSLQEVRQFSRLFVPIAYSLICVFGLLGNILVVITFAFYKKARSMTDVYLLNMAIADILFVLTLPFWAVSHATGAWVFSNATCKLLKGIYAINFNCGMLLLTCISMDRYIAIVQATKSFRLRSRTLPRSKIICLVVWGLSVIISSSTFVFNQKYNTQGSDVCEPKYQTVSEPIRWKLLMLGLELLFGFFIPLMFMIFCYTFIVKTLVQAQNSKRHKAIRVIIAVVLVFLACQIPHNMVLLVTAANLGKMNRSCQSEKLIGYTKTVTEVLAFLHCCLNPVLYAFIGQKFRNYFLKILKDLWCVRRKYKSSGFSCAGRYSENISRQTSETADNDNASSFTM
assay.method.text: blockers of CCL20-driven beta-arrestin recruitment to CCR6 – cell-based, CHO-K1, luminescence, uHTS, primary screen (AID 493098);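 further: cells stimulated with CCL20 at 14 nM final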
condition.info: CHO-K1 CCR6 PathHunter beta-arrestin, CCL20-stimulated, at 20 µM
About 1,700 (0.5%) of roughly 340,000 compounds were called active.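 How the source made its calls: active means compounds whose inhibition of the agonist-driven luminescence signal at 20 µM reaches about 50% (limit read from the data); inactive means the rest.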 The sample holds actives, similar compounds and a random draw of the others, so the mix is not that of the screen.
Respond using exactly one of the listed classes: True = active, False = inactive

Request: How was `O=c1ccc2c(-c3ccccc3S(=O)(=O)O)c3ccc(O)c(O)c3oc-2c1O` classified in this test?
Response: True

Request: How was `Cc1cc(C(=O)N2CCC(C(=O)O)CC2)c(C(F)(F)F)o1` classified in this test?
Response: False

Request: How was `CC(=O)N(C1=C(Cl)C(=O)c2ccccc2C1=O)c1ccc(C(=O)O)cc1` classified in this test?
Response: False

Request: How was Cc1ccccc1N1C(=O)C2ON(c3ccccc3)C(c3ccncc3)C2C1=O (stereo not given) classified in this test?
Response: False

Request: How was `COC(=O)Cc1ccc(NC(=S)NCc2ccccc2)cc1` classified in this test?
Response: False

Request: How was CSCCC(NC(=O)COc1ccccc1)C(=O)OCCOc1ccc(Br)cc1 (stereo not given) classified in this test?
Response: False

Request: How was `O=C(CCc1ccccc1)NNC(=O)COc1ccc(Cl)cc1` classified in this test?
Response: False

Request: How was `Cc1cc(C)nc(SCc2ccccc2C#N)n1` classified in this test?
Response: False

Request: How was `COc1ccc(C(=O)c2oc3ccc(Br)cc3c2NC(C)=O)cc1` classified in this test?
Response: False

Request: How was COC(=O)C1NN=C(C(=O)c2ccc(Br)cc2)C1c1cccc(Br)c1 (stereo not given) classified in this test?
Response: True

Request: How was `COc1ccc(-c2csc(Cc3nc(O)cs3)n2)cc1` classified in this test?
Response: True

Request: How was `COc1ccc(C(=O)NC(=S)NNC(=O)c2c(-c3ccccc3)noc2C)cc1` classified in this test?
Response: False

Request: How was `COC(=O)C1=C(C)N(C)C(C)=C(C(=O)OC)C1c1cccc(Br)c1` classified in this test?
Response: False

Request: How was `COc1ccc(CNc2nccs2)cc1` classified in this test?
Response: False

Request: How was CC(=O)NC(CC(=O)Nc1ccc(S(=O)(=O)N2CCOCC2)cc1)c1ccccc1 (stereo not given) classified in this test?
Response: False

Reference source: PubChem BioAssay AID493098
